Tested on: IL-2 in Jurkat (ATCC, clone E6.1) cells stimulated with anti-CD3/28/2
PROCEDURE DETAILS: Jurkat IL-2 Assay
Format: cell-based
ASSAY CONDITIONS: Homo sapiens; IL-2 inhibition, Jurkat cells, 30 min compound then anti-CD3/28/2 stimulation for 24 hours; mean value if tested more than once; read-out: IC50
pIC50: −log10 of the molar value.
// pIC50 lookup, one value per entry

Here is how some molecules turned out for pIC50.
# MOLECULE, pIC50
records = [
    ("CNC(=O)[C@H]1CC[C@H](C(=O)N(C)[C@@H](c2ccc(Nc3cnc4nc(Cl)nn4c3[C@H](C)OC)cc2)C(F)(F)F)CC1 [Compound 8.2]", "6.00 to 7.00"),
    ("CO[C@@H](C)c1c(Nc2ccc([C@H](N(C)C(=O)C3CN(C(C)=O)C3)C(F)(F)F)cc2)cnc2nc(Cl)nn12 [Compound 1.15]", "6.00 to 7.00"),
]

Now consider the entry below.
## Task pIC50 for CO[C@@H](C)c1c(Nc2ccc([C@H](N(C)C(=O)C3CCS(=O)(=O)CC3)C(F)(F)F)cc2)cnc2nc(Cl)nn12 [Compound 1.1] ?
## Result 6.00 to 7.00

* * *

MEASURED TARGET: full length MALT1 (Homo sapiens (Human))
Sequence (Q9UDY8 whole entry): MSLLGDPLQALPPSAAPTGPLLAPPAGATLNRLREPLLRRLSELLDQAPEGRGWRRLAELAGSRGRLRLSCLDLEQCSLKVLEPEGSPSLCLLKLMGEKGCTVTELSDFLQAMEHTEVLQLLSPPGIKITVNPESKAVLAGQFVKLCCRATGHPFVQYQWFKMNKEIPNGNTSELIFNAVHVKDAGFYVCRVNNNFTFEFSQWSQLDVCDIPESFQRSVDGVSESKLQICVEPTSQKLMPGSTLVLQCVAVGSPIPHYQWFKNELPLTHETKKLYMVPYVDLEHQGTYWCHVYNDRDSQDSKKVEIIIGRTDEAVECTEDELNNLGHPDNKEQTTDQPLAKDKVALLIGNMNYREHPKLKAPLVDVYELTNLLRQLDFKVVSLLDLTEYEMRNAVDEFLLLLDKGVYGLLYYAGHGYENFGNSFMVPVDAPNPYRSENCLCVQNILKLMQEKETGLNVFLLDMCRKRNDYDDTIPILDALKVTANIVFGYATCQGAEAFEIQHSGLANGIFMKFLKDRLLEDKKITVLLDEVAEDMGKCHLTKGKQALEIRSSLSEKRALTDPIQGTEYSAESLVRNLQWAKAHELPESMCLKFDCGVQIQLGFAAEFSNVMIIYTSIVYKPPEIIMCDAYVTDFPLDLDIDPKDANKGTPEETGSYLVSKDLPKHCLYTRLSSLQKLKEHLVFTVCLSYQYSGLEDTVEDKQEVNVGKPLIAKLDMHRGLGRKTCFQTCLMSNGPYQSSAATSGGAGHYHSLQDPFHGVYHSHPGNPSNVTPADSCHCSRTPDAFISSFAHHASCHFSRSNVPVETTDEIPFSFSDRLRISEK
pIC50: −log10 of the molar value. Where a name gives a salt, the structure may show the parent alone.
REPORTED PROPERTY: pIC50

# COMPOUND, OBSERVED VALUE
rows = [
    ("CO[C@@H](C)c1c(Nc2ccc([C@H](N(C)C(=O)C3CCN(C)C3)C(F)(F)F)cc2)cnc2nc(Cl)nn12 (stereo partly shown) [Compound 5.3, hydrochloride]", "6.00 to 7.00"),
]

## Task pIC50 for CO[C@@H](C)c1c(Nc2ccc([C@H](N(C)C(=O)C3CCC(CNC(=O)OC(C)(C)C)CC3)C(F)(F)F)cc2)cnc2nc(Cl)nn12 (stereo partly shown) [Compound 1.13] ?
## Result 6.00 to 7.00

## Task pIC50 for CO[C@@H](C)c1c(Nc2ccc([C@H](N(C)C(=O)C3CCOC3)C(F)(F)F)cc2)cnc2nc(Cl)nn12 (stereo partly shown) [Compound 1.6] ?
## Result > 7.00

## Task pIC50 for CO[C@@H](C)c1c(Nc2ccc([C@H](N(C)C(=O)C3CCC(CNC(C)=O)CC3)C(F)(F)F)cc2)cnc2nc(Cl)nn12 (stereo partly shown) [Compound 3.11] ?
## Result > 7.00

## Task pIC50 for CO[C@@H](C)c1c(Nc2ccc([C@H](N(C)C(=O)C3CCCNC3)C(F)(F)F)cc2)cnc2nc(Cl)nn12 (stereo partly shown) [Compound 2.2] ?
## Result 6.00 to 7.00

* * *

System: IL-2 in Jurkat (ATCC, clone E6.1) cells stimulated with anti-CD3/28/2
PROCEDURE DETAILS: Jurkat IL-2 Assay
Format: cell-based
ASSAY CONDITIONS: Homo sapiens; IL-2 inhibition, Jurkat cells, 30 min compound then anti-CD3/28/2 stimulation for 24 hours; mean value if tested more than once; read-out: IC50
pIC50: −log10 of the molar value.
REPORTED PROPERTY: pIC50

Here is how some compounds turned out for pIC50.
# COMPOUND, OBSERVED VALUE
rows = [
    ("CO[C@@H](C)c1c(Nc2ccc([C@H](N(C)C(=O)C3CCC(F)(F)CC3)C(F)(F)F)cc2)cnc2nc(Cl)nn12", "6.00 to 7.00"),
    ("CO[C@@H](C)c1c(Nc2ccc([C@H](N(C)C(=O)C3CCN(C(=O)OC(C)(C)C)CC3)C(F)(F)F)cc2)cnc2nc(Cl)nn12", "6.00 to 7.00"),
    ("CO[C@@H](C)c1c(Nc2ccc([C@H](N(C)C(=O)C3CCN(C(=O)C4CC4)CC3)C(F)(F)F)cc2)cnc2nc(Cl)nn12", "6.00 to 7.00"),
    ("CO[C@@H](C)c1c(Nc2ccc([C@H](N(C)C(=O)C3CCC4(CC3)OCCO4)C(F)(F)F)cc2)cnc2nc(Cl)nn12", "6.00 to 7.00"),
]

## Task pIC50 for CC(=O)N1CCC(C(=O)N(C)[C@@H](c2ccc(Nc3cnc4nc(Cl)nn4c3C(C)C)cc2)C(F)(F)F)CC1 ?
## Result > 7.00

## Task pIC50 for CO[C@@H](C)c1c(Nc2ccc([C@H](N(C)C(=O)C3CCCN(C(=O)C4CC4)C3)C(F)(F)F)cc2)cnc2nc(Cl)nn12 (stereo partly drawn) ?
## Result 6.00 to 7.00
